Tested on: LOX IMVI melanoma
assay_notes: NCI-60 one-dose screen, 48 h
experimental_context: 10 µM unless noted
The panel holds about 83,000 compounds, 20% with a hit somewhere; the sample as a whole holds those more often. Calls of active or inactive are those of the source. How the source made its calls: active means growth percent below 10; inactive means the rest.
Your response should consist of one outcome taken from True (active), False (inactive)

Solved entries (count: 5):
COC(=O)[C@@H](C)C[C@H](Cc1ccccc1)NC(=O)c1csc([C@@H](C[C@H](C(C)C)N(C)C(=O)[C@@H](NC(=O)C23CC(NC(C)=O)(C2)C3)C2CC2)OC(C)=O)n1 : False
CC1=C(CCCNS(C)(=O)=O)C2=C(C)C3(CC3)[C@@](C)(O)C(=O)C2=C1 : True
CC[C@H](C)[C@H](NC(=O)[C@H]1CCCCN1C)C(=O)N(C)[C@H](C[C@@H](OC(C)=O)c1nc(C(=O)N[C@@H](Cc2ccccc2)C[C@H](C)C(=O)OC)cs1)C(C)C : True
CO[C@H]1CC[C@@]2(C)C(=CC[C@@H]3[C@@H]2CC[C@]2(C)C(=O)C(=O)C[C@@H]32)C1 : False
Nc1ccc(-c2nc3cc(F)ccc3[se]2)cc1F : False

Exercise: Status in this test for COc1cc(NCCCN=C(N)N)c2ncccc2c1 ?
Solution: False

Exercise: Look up the recorded call for Cc1cccc(N2CCN(C(C)C#N)CC2)c1 (centres undefined) in this test.
Solution: False

----------
System: 786-0 renal
assay_notes: NCI-60 one-dose screen, 48 h
experimental_context: 10 µM unless noted
This is part of a sample that, as a whole, favours compounds with a hit. Of some 83,000 tested, about 20% had one in any assay. Active and inactive are the calls of the source. The calls were made as follows: active = growth percent below 10; inactive = the rest.
Classes to choose from: yes (1) for active, no (0) for inactive

Exercise: Status in this test for C[Se]C(=O)c1ccccc1OC(C)=O ?
Solution: no (0)

Exercise: # fetch the recorded call for OCCNC(Cc1ccccc1)c1ccc2c(c1)OCO2 (configuration not stated) here
Solution: no (0)

----------
System: LOX IMVI melanoma
assay_notes: NCI-60 one-dose screen, 48 h (100 = growth as untreated, 0 = no growth, -100 = all killed)
experimental_context: 10 µM unless noted
The panel holds about 83,000 compounds, 20% with a hit somewhere; the sample as a whole holds those more often.
Could you please report measured growth for the items listed next?
Answers are plain numbers, in %.

Look over these answered cases.
CC(=O)O[C@H](C[C@H](C(C)C)N(C)C(=O)[C@@H](NC(=O)[C@H]1CCCCN1C)C(C)C)c1nc(C(=O)NC2CCC(C(=O)O)CC2)cs1 (stereo partly drawn) : 35.5
COc1ccc(/C=C\c2cc(OC)c(OC)c(OC)c2)cc1OCC(=O)Nc1nc2ccc(OC(F)(F)F)cc2s1 : 27.1

In the following, a different compound is considered.
Exercise: // lookup growth for CC[C@H](C)[C@H](NC(=O)C12C3C4C1C1C2C3C41NC(C)=O)C(=O)N(C)[C@H](C[C@@H](OC(C)=O)c1nc(C(=O)N[C@@H](Cc2ccccc2)C[C@H](C)C(=O)OC)cs1)C(C)C (stereo partly drawn)
Solution: 14.9

----------
Tested on: SF-295 CNS
assay_notes: NCI-60 one-dose screen, 48 h (100 = growth as untreated, 0 = no growth, -100 = all killed)
experimental_context: 10 µM unless noted
Compounds without any hit were thinned out: in the full panel of roughly 83,000, 20% have a hit.
Kindly state growth for each of the entries shown.
Answers are plain numbers, in %.

CNC(=O)Oc1ccc2c(c1)OCO2 : 101
COC(=O)CC12CC(NC(=O)c3csc([C@@H](C[C@H](C(C)C)N(C)C(=O)[C@@H](NC(=O)[C@H]4CCCCN4C)C(C)C)OC(C)=O)n3)(C1)C2 : -7.27
CCOP(=O)(NC[C@H]1O[C@](O)(CO)[C@@H](O)[C@@H]1O)OCC : 104
COC(=O)CCc1c[nH]c2ccc(N(CCCl)CCCl)cc12 : 32.9
COc1ccc2c(c1)c(C1(O)CC(CSC#N)OC1=O)cn2C(=O)c1ccc(Cl)cc1 (stereo unspecified) : 90.2

Now, please, on to the next compound.
Exercise: Given the entry COc1cc2c(cc1OCCCCCn1c(-c3ccco3)nc3ccccc31)N=C[C@@H]1CCCN1C2=O , report its measured growth.
Solution: 9.61
